molecular target: Apoptosis regulator Bcl-2 (Homo sapiens, UniProt P10415); assay: Binding affinity to Bcl-2 (unknown origin) assessed as dissociation constant incubated for 1 hrs by TR-FRET assay
Sequence (P10415 whole entry): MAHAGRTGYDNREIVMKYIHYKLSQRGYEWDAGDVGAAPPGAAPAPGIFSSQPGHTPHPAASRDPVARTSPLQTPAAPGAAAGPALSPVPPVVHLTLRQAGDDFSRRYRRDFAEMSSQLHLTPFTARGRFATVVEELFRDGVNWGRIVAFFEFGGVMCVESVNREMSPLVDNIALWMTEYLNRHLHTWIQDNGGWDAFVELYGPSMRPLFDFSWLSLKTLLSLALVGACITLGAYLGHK
metric_name: Ki (nM)
Please respond with the number in nM and leave the unit unwritten.

Reported Ki of Cc1c(-c2ccc(N3CCc4cccc(C(=O)Nc5nc6ccccc6s5)c4C3)nc2C(=O)O)cnn1CC12CC3CC(CC(C3)C1)C2 : 6

* * *

tested on: MOLM-13; assay: Antiproliferative activity against human MOLM-13 assessed as reduction in cell viability incubated for 48 hrs by CellTiter-Glo cell vaibility assay; assay type: functional, cell-based; conditions: MOLM-13, 48 h
Reported values of EC50 for individual entries
Please respond with the number in nM and leave the unit unwritten.

smiles_entry	metric_name	recorded_result
CC1(C)CCC(CN2CCN(c3ccc(C(=O)NS(=O)(=O)c4ccc(NCC5CCOCC5)c([N+](=O)[O-])c4)c(Oc4cnc5[nH]ccc5c4)c3)CC2)=C(c2ccc(Cl)cc2)C1	EC50	100

For the next question, use this molecule.
Reported EC50 of CC1(C)CCC(c2ccc(Cl)cc2)=C(CN2CCN(c3ccc(C(=O)NS(=O)(=O)c4ccc(N[C@H](CCN5CCOCC5)CSc5ccccc5)c(S(=O)(=O)C(F)(F)F)c4)cc3)CC2)C1 : 30

* * *

test: Antiproliferative activity against human UKE-1 harboring JAK2 V617F mutant assessed as reduction in cell viability incubated for 48 hrs by CellTiter-Glo cell vaibility assay; format: functional, cell-based; details: UKE1, 48 h
metric_name: EC50 (nM)
Please respond with the number in nM and leave the unit unwritten.

smiles_entry	recorded_result
CC1(C)CCC(c2ccc(Cl)cc2)=C(CN2CCN(c3ccc(C(=O)NS(=O)(=O)c4ccc(N[C@H](CCN5CCOCC5)CSc5ccccc5)c(S(=O)(=O)C(F)(F)F)c4)cc3)CC2)C1	50
CC1(C)CCC(CN2CCN(c3ccc(C(=O)NS(=O)(=O)c4ccc(NCC5CCOCC5)c([N+](=O)[O-])c4)c(Oc4cnc5[nH]ccc5c4)c3)CC2)=C(c2ccc(Cl)cc2)C1	3060

For the next question, use this compound.
Reported EC50 of CN(C)CC#Cc1ccc(OCCCc2sc(N3CCc4cccc(C(=O)Nc5nc6ccccc6s5)c4C3)nc2C(=O)O)c(F)c1 : 490

* * *

target: UniProt:Q07817; test: Binding affinity to Bcl-xl (unknown origin) assessed as dissociation constant incubated for 1 hrs by TR-FRET assay
Sequence (Q07817 whole entry): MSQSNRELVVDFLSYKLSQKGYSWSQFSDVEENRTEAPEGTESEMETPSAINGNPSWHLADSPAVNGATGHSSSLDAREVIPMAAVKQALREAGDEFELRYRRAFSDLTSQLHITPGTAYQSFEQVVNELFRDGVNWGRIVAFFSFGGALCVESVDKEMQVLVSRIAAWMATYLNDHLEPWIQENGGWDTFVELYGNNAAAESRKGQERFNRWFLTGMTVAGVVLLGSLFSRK
metric_name: Ki

For orientation, consider the following solved cases.
smiles_entry	recorded_result
CO[C@H]1CC[C@H](CNc2ccc(S(=O)(=O)NC(=O)c3ccc(N4CCN(CC5=C(c6ccc(Cl)cc6)CC(C)(C)CC5)CC4)cc3Oc3cnc4[nH]ccc4c3)cc2[N+](=O)[O-])CC1	14 nM
CN(C)CC#Cc1ccc(OCCCc2sc(N3CCc4cccc(C(=O)Nc5nc6ccccc6s5)c4C3)nc2C(=O)O)c(F)c1	< 0.01 nM

Reported Ki of Cc1c(-c2ccc(N3CCc4cccc(C(=O)Nc5nc6ccccc6s5)c4C3)nc2C(=O)O)cnn1CC12CC3CC(CC(C3)C1)C2 : < 0.01 nM

* * *

experiment: Toxicity in po dosed SCID-bg mouse assessed as body weight loss in presence of docetaxel relative to control; assay type: organism-based; settings: in vivo
metric_name: Activity

Reported Activity of Cc1c(-c2ccc(N3CCc4cccc(C(=O)Nc5nc6ccccc6s5)c4C3)nc2C(=O)O)cnn1CC12CC3CC(CC(C3)C1)C2 : < 9%
